- System: Symmetric Di-methyl Arginine (SDMA) signal (PRMT5 inhibition) in HCT116 MTAP-deleted cells
- TEST_DESCRIPTION: Symmetric di-methyl arginine image-based high content screen assay (SDMA assay), HCT116 MTAP-deleted
- Type: cell-based
- EXPERIMENTAL_SETUP: Homo sapiens, HCT-116, HCT116 MTAP-deleted, class symbols
pEC50: −log10 of the molar value.
READOUT_TYPE: pEC50

COMPOUND: Cc1ncc2c(N)nc3cc(F)c(C(=O)N(C)[C@@H]4COc5cc(C(F)(F)F)ccc54)cc3n12 [Ff-59]
pEC50: 8.30 to 9.00
//
COMPOUND: CN(C(=O)c1cc2c(cc1F)nc(N)c1cncn12)[C@@H]1COc2cc(-n3cnc(C(F)(F)F)n3)ccc21 [Ff-324]
pEC50: 8.30 to 9.00
//
COMPOUND: Nc1nc2cc(F)c(C(=O)N3CCC4CC3c3ccc(C(F)(F)F)cc34)cc2n2cncc12 (stereo not drawn) [Ff-29]
pEC50: 8.30 to 9.00
//
COMPOUND: CCN(C(=O)c1cc2c(cc1F)nc(N)c1cncn12)[C@@H]1COc2cc(C(F)(F)F)ccc21 [Ff-9]
pEC50: ≥ 9.00

Exercise: Field request: pEC50 | item: Nc1nc2cc(F)c(C(=O)N3CC[C@H]4C[C@@H]3c3ccc(C(F)(F)F)c(F)c3O4)cc2n2cncc12 [Ff-634]
Solution: ≥ 9.00

Exercise: Data request, read-out pEC50, for CCN(C(=O)c1ccc2nc(N)c3cncn3c2c1)[C@@H]1COc2cc(C(F)(F)F)ccc21 [Ff-8]
Solution: ≥ 9.00

----------
- Tested on: Calu-6 (lung, adenocarcinoma; MTAP-WT)
- TEST_DESCRIPTION: In vitro cell viability assay (CellTiter-Glo, 9 days), Calu-6
- Assay type: cell-based
- EXPERIMENTAL_SETUP: Homo sapiens, Calu-6, 216 h, 9-day treatment
READOUT_TYPE: GI50 (nM)

QUERY_SMILES: Nc1nc2cnc(C(=O)N3CC4(CC4)C[C@@H]4Oc5cc(C(F)(F)F)ccc5[C@@H]43)cc2n2cncc12
OBSERVED_MEASUREMENT: 1660

(I) Nc1nc2cnc(C(=O)N3CCC[C@@H]4Oc5cc(C(F)(F)F)ccc5[C@@H]43)cc2n2cncc12
(II) Nc1nc2cnc(C(=O)N3CCC[C@@H]4Oc5cc(OC(F)(F)F)ccc5[C@@H]43)cc2n2cncc12
Exercise: Endpoint returns the identifier whose GI50 is numerically larger, either I or II . State the label of the item chosen.
Solution: II
(II: 2440 nM, I: 1550 nM)

----------
- TARGET_DESC: hERG ion channel (Homo sapiens)
- Construct: host or cells: HEK293
- Sequence (Q12809 whole entry): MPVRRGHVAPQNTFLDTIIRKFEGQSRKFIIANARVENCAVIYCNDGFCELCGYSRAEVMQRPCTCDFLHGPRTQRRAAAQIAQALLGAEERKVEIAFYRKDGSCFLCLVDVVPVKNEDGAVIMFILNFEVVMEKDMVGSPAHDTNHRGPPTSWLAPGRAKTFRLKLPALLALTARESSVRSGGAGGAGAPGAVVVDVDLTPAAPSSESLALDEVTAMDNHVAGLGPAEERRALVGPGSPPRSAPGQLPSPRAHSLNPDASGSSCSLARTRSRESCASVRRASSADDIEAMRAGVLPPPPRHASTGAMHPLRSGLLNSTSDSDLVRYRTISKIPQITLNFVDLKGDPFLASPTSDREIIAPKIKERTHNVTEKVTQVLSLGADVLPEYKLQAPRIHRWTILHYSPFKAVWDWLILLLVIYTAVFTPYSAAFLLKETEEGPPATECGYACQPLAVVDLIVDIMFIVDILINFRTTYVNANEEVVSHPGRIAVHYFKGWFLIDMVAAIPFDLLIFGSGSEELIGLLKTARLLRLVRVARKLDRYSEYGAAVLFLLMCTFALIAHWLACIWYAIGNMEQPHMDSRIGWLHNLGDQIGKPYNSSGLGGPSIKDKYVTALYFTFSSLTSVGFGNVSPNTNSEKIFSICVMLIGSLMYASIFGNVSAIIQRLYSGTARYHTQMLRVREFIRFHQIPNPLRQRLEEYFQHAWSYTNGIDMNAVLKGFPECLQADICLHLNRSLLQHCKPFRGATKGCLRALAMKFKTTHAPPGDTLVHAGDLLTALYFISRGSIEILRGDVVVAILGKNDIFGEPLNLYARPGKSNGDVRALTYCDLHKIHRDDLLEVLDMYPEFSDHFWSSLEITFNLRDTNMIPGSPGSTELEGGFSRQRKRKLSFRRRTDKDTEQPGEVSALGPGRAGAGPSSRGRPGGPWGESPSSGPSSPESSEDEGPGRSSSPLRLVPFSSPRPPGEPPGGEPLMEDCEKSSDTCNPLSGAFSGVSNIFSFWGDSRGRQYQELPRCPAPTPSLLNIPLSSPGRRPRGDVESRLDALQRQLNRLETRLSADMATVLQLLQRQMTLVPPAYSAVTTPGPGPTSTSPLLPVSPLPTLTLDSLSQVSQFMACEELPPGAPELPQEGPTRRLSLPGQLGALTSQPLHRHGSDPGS
- TEST_DESCRIPTION: hERG assay (automated patch clamp, QPatch HT)
- Type: cell-based
- EXPERIMENTAL_SETUP: HEK293 hERG, * = accurate hERG measurement may be limited by compound solubility
Below: a set of entries, each annotated with reported IC50.
Kindly provide the numeric value in µM only, without the unit symbol.

COMPOUND: Nc1nc2cnc(C(=O)N3CCC[C@@H]4Oc5cc(C(F)(F)F)cc(F)c5[C@@H]43)cc2n2cncc12 (single isomer, unassigned)
TARGET_DESC: hERG ion channel (Homo sapiens)
QUANTITY_UNIT: µM
IC50: 9.95

Now for a further compound.
Exercise: So what IC50 did C[C@@H]1CN(C(=O)c2cc3c(cc2F)nc(N)c2cncn23)[C@H]2c3cc(F)c(OC(F)(F)F)cc3C[C@H]2O1 (single isomer, unassigned) get with hERG ion channel (Homo sapiens)?
Solution: 11.9

Entry source: patent US12448388B2
